Values compiled from a melting point compilation (Tetko et al.).

Recorded melting point values for a group of compounds are listed next.

O=C(O)CCn1cnc2ccccc21	106 to 108 °C

Give the value of melting point reported for the following: CS(=O)(=O)c1ccc(Cl)c(S(=O)(=O)Cl)c1
141 to 143 °C

Give the value of melting point reported for the following: CN(C)C1(C(=O)O)CCCSC1 (stereo unspecified)
196 to 198 °C

Give the value of melting point reported for the following: Cc1ccc(S(=O)(=O)N2CCCC2C(=O)O)cc1 (stereo unspecified)
96 to 98 °C

Give the value of melting point reported for the following: O=C1CC2(CCCCC2)CC(=O)O1
210 to 214 °C

Give the value of melting point reported for the following: O=C(O)c1cc2cc(Cl)cc(Br)c2o1
265 to 267 °C
